Reference source for all entries: a melting point compilation (Tetko et al.; mined from patent text by program, amines drawn as free bases though some values may be those of a salt)

quantity.name: melting point

Worked examples, 5 compounds total:
compound=C[C@H](O)C(=O)Nc1ccccn1 value_reported="102 to 104 °C"
compound="CC(C)(C)CC1(C)CC(C)(C)c2ccc(O)cc21 (stereo unspecified)" value_reported="102 °C"
compound=O=C(NC1CC1)c1ccc(CCN2CC=C(c3c[nH]c(-c4ccc(F)cc4)c3-c3ccncc3)CC2)cc1 value_reported="226 to 228 °C"
compound=O=[N+]([O-])c1cnc2ccc(Cl)cc2c1Cl value_reported="118 to 120 °C"
compound="CN(C)C(=O)COc1ccc(-c2ccc(C3COC(c4c(F)cccc4F)=N3)cc2)cc1 (stereo unspecified)" value_reported="78 to 80 °C"

Q: Quick check: melting point of N#Cc1ccc(-c2cn(-c3ccc(Br)cc3)c(C(=O)O)c2C(=O)O)cc1 ?
A: 217 to 221 °C

Q: Quick check: melting point of O=[N+]([O-])c1ccc2c(c1)C(c1ccccc1F)=NCc1nc(CO)cn1-2 ?
A: 230 to 231 °C

Q: Quick check: melting point of Oc1cc(Br)c(-c2c3ccccc3c(Br)c3sc4ccccc4c23)cc1O ?
A: 138 to 140 °C

Q: Quick check: melting point of Cc1c(N(C)C)ccc(Br)c1N=C1NCCN1 ?
A: 157 to 158 °C

Q: Quick check: melting point of Cc1cc(C=Cc2ccccc2OCC(O)CNC(C)(C)C)on1 (stereo unspecified) ?
A: 83 to 85 °C

Q: Quick check: melting point of C=CCn1c(C)c(C)c2cnnc(CCc3ccc(F)cc3F)c21 ?
A: 118 to 119 °C

----------
quantity.name: melting point

Q: Quick check: melting point of CCc1noc(C)c1-c1[nH]c2ccccc2c1CCCCN(C)C ?
A: 156 to 158 °C

----------
quantity.name: melting point

Worked examples, 3 compounds total:
compound=Cc1nc2scc(C)n2c(=O)c1CCN1CCC(c2c[nH]c3ccccc23)CC1 quantity_name="melting point" value_reported="275 °C"
compound="Cc1ccc(C(=O)NC(NC(=S)Nc2cc(F)ccc2F)C(F)(F)F)cc1 (stereo unspecified)" quantity_name="melting point" value_reported="183 to 185 °C"
compound=CNC(=O)NCCn1c(-c2ccc(CN3CCOCC3)c(C)c2)csc1=Nc1ccc(F)c(C)c1 quantity_name="melting point" value_reported="139 to 140 °C"

Q: Quick check: melting point of COC(=O)CCCCc1csc(N=C2SC[C@@H]3Cc4ccccc4CN23)n1 ?
A: 92 °C

Q: Quick check: melting point of CCOC(=O)C(Br)=NNc1ccccc1 ?
A: 82 to 83 °C

Q: Quick check: melting point of CCOC(=O)CNC(=O)Oc1c(CC)n(C)ccc1=O ?
A: 99 to 100 °C

Q: Quick check: melting point of Cc1nc(-c2ncn3c2COC(=O)c2c(Cl)cccc2-3)no1 ?
A: 253 to 255 °C

Q: Quick check: melting point of CCCCC1OC(=O)c2cc(NC=O)ccc21 (stereo unspecified) ?
A: 127 to 129 °C

Q: Quick check: melting point of O=C1N(N2CCOCC2)c2ccccc2C1(Cc1ccnc(F)c1)c1ccccc1 (stereo unspecified) ?
A: 170 to 172 °C

Q: Quick check: melting point of CCOC(=O)C1=C(C)NC(C)=C(C(=O)OCCN2CCN(C(c3ccc(C)cc3)c3ccc(C)cc3)CC2)C1c1ccc(C#N)cc1 (stereo unspecified) ?
A: 93 to 96 °C

Q: Quick check: melting point of Cc1cccc(S(=O)(=O)N=CN(C)C)c1C#N ?
A: 168 to 174 °C
